B1: RAD51 (parent)
chain: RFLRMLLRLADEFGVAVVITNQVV

variants of: B1; test: protein stability index of a GFP-peptide fusion (GPS, HEK-293T) (PSI 1-6); higher = more stable; details: c terminus: a fixed tail appended;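 note: lentivirally expressed fusions sorted by FACS into six bins by GFP to DsRed ratio, PSI derived from sequencing read proportions per bin multiplied by bin number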

{"columns": ["Variant label", "protein stability index"],
 "data": [
  ["I19F", 2.18],
  ["F2N", 2.1],
  ["N21R", 1.68],
  ["V15N", 2.31],
  ["Q22C", 2.3],
  ["L9F", 1.76],
  ["T20P", 2.72],
  ["R8F", 2.47],
  ["R4S", 3.21],
  ["L7G", 3.06],
  ["V18C", 2.1],
  ["A10L", 3.03],
  ["N21Q", 1.9],
  ["F2G", 1.75],
  ["G14K", 1.96],
  ["Q22F", 1.29],
  ["F2D", 2.27],
  ["V15A", 1.79],
  ["A10H", 1.64],
  ["V17S", 1.36],
  ["V24M", 2.4],
  ["A10I", 3.61],
  ["F13G", 2.04],
  ["L3K", 2.6],
  ["R8C", 2.36],
  ["Q22I", 1.43],
  ["I19H", 1.25],
  ["M5D", 2.28],
  ["F13Y", 1.72],
  ["I19W", 1.96],
  ["R4D", 1.96],
  ["Q22V", 2.24],
  ["I19Y", 2.79],
  ["R4I", 2.45],
  ["E12K", 2.42],
  ["Q22A", 1.52],
  ["D11E", 1.97],
  ["Q22P", 1.99],
  ["L6M", 2.02],
  ["V18H", 3.04],
  ["A16V", 1.34],
  ["L6P", 3.81],
  ["L3E", 3.2],
  ["R1P", 2.08],
  ["I19N", 2.67],
  ["A16S", 2.34],
  ["R4M", 1.97],
  ["L7H", 2.34],
  ["L9G", 3.55],
  ["R4H", 2.49],
  ["V23R", 1.09],
  ["G14Q", 1.69],
  ["F2A", 1.89],
  ["M5N", 1.93],
  ["L6Q", 4.57],
  ["A10F", 2.21],
  ["R4W", 1.77],
  ["F13A", 1.3],
  ["N21V", 2.43],
  ["V15R", 2.32],
  ["E12S", 2.08],
  ["I19D", 2.76],
  ["G14C", 2.4],
  ["G14N", 2.03],
  ["A16C", 1.43],
  ["L6C", 2.78],
  ["Q22K", 1.39],
  ["A10S", 1.65],
  ["M5A", 3.9],
  ["L9P", 3.32],
  ["G14A", 2.83],
  ["A10T", 3.2],
  ["V18S", 3.17],
  ["V15I", 2.51],
  ["L7Q", 2.34],
  ["R8A", 1.42],
  ["A10Q", 1.82],
  ["V18M", 3.82],
  ["L6R", 2.89],
  ["V15H", 2.6],
  ["V17D", 2.06],
  ["R4P", 2.39],
  ["A16P", 1.08],
  ["A16W", 2.44],
  ["A16T", 1.79],
  ["N21C", 1.32],
  ["R4E", 1.23],
  ["T20V", 2.82]
]}
